# System: EKVX NSCLC
# ASSAY_PROCEDURE: NCI-60 one-dose screen, 48 h (100 = growth as untreated, 0 = no growth, -100 = all killed)
# CONDITION_SET: 10 µM unless noted
About 83,000 compounds went through this panel and 20% of them were active in at least one assay; those are over-represented in the sample as a whole.
What growth was measured for each of the following?
Answers are plain numbers, in %.

Previously resolved entries follow.
>  <COMPOUND>
COc1ccc(NC(=O)CSc2nc(-c3ccc(OC)c(OC)c3)cc(-c3cc(OC)c(OC)c(OC)c3)n2)cc1

>  <TARGET_UNDER_TEST>
EKVX NSCLC

>  <UNIT_STRING>
%

>  <ENDPOINT_VALUE>
108

$$$$
>  <COMPOUND>
S=C(S)NCCc1c[nH]c2ccccc12

>  <TARGET_UNDER_TEST>
EKVX NSCLC

>  <UNIT_STRING>
%

>  <ENDPOINT_VALUE>
100

$$$$
>  <COMPOUND>
CC(C)(C)n1cc(-c2ccnc(NCCCNS(=O)(=O)c3ccccc3)c2)c(-c2cccc(O)c2)n1

>  <TARGET_UNDER_TEST>
EKVX NSCLC

>  <UNIT_STRING>
%

>  <ENDPOINT_VALUE>
57.3

$$$$
>  <COMPOUND>
Cc1ccc(S(=O)(=O)C2=C3C(=C(c4ccccc4)c4ccccc43)CN(S(=O)(=O)c3ccc(C)cc3)C2)cc1

>  <TARGET_UNDER_TEST>
EKVX NSCLC

>  <UNIT_STRING>
%

>  <ENDPOINT_VALUE>
77.9

$$$$
>  <COMPOUND>
COc1cccc(/C=C/C(=O)Nc2cc(OC)c3c(c2)OCO3)c1

>  <TARGET_UNDER_TEST>
EKVX NSCLC

>  <UNIT_STRING>
%

>  <ENDPOINT_VALUE>
92.4

$$$$
>  <COMPOUND>
COc1ccc(-c2c(N)n[nH]c2-c2cc(OC)c(OC)c(OC)c2)cc1

>  <TARGET_UNDER_TEST>
EKVX NSCLC

>  <UNIT_STRING>
%

>  <ENDPOINT_VALUE>
48

$$$$

Dear colleague, could you send me growth for each of the items below? Thanks.
1. CC(C)CSc1nc(NN)c(C#N)c(-c2ccc(F)cc2)n1
2. COc1ccc(C2=CC(c3cc(OC)c(OC)c(OC)c3)NC(=O)N2)cc1OC (stereo not given)
3. Cc1ccc(C(=O)C2=Cc3cc4ccccc4n3Cc3cnnn32)cc1
4. CN(CCCCCl)P(=O)(OCc1ccc([N+](=O)[O-])o1)C(F)(F)C[C@H](NC(=O)CNC(=O)c1ccc(N=[N+]=[N-])cc1)C(=O)NCCc1ccc(O)cc1 (stereo not given in full)
5. Cc1ccc(S(=O)(=O)NC(=O)n2cc(-c3ccncc3)c(-c3ccc(Cl)c(O)c3)n2)cc1

[89.4, 35.5, 107, 102, 110]

The values you see were collected from PubChem BioAssay (NCI).
